# Tested Target: CCDC6-RET-BaF3 (Homo sapiens)
# Construct: fused on or other part: Q16204 (Coiled-coil domain-containing protein 6)
# Assay Method Text: Growth inhibition of CCDC6-RET-BaF3 cells stably transfected with kinase (MTS)
# Type: cell-based
# Recorded Conditions: 48 h, read-out: CCDC6-RET (IC50/nM)
Quantity Measured: GI50

[[record]]
smiles_input = "CN1CCN(Cc2ccc(C(=O)Nc3cccc(Oc4nc(-c5ccncc5)nc5c4cnn5C)c3)cc2C(F)(F)F)CC1"
tested_target = "CCDC6-RET-BaF3 (Homo sapiens)"
reported_measurement = "140 nM"

[[record]]
smiles_input = "Cc1ccc(C(=O)Nc2ccc(CN3CCN(C)CC3)c(C(F)(F)F)c2)cc1Oc1nc(-c2cccc(Cl)c2)nc2c1cnn2C"
tested_target = "CCDC6-RET-BaF3 (Homo sapiens)"
reported_measurement = "807 nM"

[[record]]
smiles_input = "CN1CCN(Cc2ccc(NC(=O)c3cc(Oc4nc(-c5cccc(O)c5)nc5c4ncn5C)ccc3Cl)cc2C(F)(F)F)CC1"
tested_target = "CCDC6-RET-BaF3 (Homo sapiens)"
reported_measurement = "1290 nM"

[[record]]
smiles_input = "Cc1ccc(Oc2nc(-c3cccnc3)nc3c2cnn3C)cc1NC(=O)c1ccc(CN2CCN(C)CC2)c(C(F)(F)F)c1"
tested_target = "CCDC6-RET-BaF3 (Homo sapiens)"
reported_measurement = "4170 nM"

[[record]]
smiles_input = "Cc1ccc(Oc2nc(-c3ccncc3)nc3c2cnn3C)cc1NC(=O)c1ccc(CN2CCN(C)CC2)c(C(F)(F)F)c1"
tested_target = "CCDC6-RET-BaF3 (Homo sapiens)"
reported_measurement = "13.1 nM"

[[record]]
smiles_input = "CN1CCN(Cc2ccc(C(=O)Nc3cccc(Oc4nc(-c5cccnc5)nc5ccn(C)c45)c3)cc2C(F)(F)F)CC1"
tested_target = "CCDC6-RET-BaF3 (Homo sapiens)"
reported_measurement = "4100 nM"

[[record]]
smiles_input = "CCC(=O)NC1CCN(c2ccc(NC(=O)c3ccc(C)c(Oc4nc(-c5ccncc5)nc5c4cnn5C)c3)cc2C(F)(F)F)CC1"
tested_target = "CCDC6-RET-BaF3 (Homo sapiens)"
reported_measurement = "346 nM"

[[record]]
smiles_input = "Cc1ccc(Oc2cc(-c3ccncc3)nc3[nH]ccc23)cc1C(=O)Nc1ccc(CN2CCN(C)CC2)c(C(F)(F)F)c1"
tested_target = "CCDC6-RET-BaF3 (Homo sapiens)"
reported_measurement = "580 nM"

[[record]]
smiles_input = "Cc1ccc(NC(=O)c2ccc(CN3CCN(C)CC3)c(C(F)(F)F)c2)cc1Oc1ncnc2c1cnn2C"
tested_target = "CCDC6-RET-BaF3 (Homo sapiens)"
reported_measurement = "881 nM"


----------
# Tested Target: KIF5B-RET-BaF3 (Homo sapiens)
# Construct: fused on or other part: P33176 (Kinesin-1 heavy chain)
# Sequence (P07949 whole entry, change not shown, the tested form may be a part): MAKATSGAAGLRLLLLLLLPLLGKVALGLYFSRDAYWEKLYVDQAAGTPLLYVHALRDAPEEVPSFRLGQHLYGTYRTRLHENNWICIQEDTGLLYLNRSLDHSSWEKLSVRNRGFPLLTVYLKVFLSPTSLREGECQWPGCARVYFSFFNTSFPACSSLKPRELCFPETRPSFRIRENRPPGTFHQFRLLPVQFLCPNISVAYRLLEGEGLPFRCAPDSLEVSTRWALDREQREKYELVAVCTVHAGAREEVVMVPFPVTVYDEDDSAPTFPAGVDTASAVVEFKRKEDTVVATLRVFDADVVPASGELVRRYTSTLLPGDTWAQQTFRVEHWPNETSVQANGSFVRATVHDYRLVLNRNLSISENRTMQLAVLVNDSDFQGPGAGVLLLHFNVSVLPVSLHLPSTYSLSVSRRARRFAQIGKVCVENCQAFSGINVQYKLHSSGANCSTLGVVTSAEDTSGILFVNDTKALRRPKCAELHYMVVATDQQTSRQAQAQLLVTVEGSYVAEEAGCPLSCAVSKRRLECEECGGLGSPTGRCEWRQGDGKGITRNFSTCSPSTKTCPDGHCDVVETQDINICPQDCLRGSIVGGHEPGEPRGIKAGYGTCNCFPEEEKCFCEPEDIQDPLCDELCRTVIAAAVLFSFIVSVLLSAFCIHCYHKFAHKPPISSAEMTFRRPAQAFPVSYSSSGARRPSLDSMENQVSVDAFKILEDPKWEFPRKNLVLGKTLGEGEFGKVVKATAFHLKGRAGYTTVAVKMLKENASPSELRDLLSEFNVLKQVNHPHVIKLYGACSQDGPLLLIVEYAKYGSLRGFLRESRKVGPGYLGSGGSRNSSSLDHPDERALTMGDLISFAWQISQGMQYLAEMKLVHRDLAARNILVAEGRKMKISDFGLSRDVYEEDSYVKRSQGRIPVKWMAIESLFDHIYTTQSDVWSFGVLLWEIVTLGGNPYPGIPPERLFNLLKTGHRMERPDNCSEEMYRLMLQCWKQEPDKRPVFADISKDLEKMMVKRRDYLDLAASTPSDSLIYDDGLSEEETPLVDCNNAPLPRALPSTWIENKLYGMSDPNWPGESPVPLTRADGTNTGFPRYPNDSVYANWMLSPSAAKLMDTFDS
# Assay Method Text: Growth inhibition of KIF5B-RET-BaF3 cells stably transfected with kinase (MTS)
# Assay type: cell-based
# Recorded Conditions: 48 h, read-out: KIF5B-RET (IC50/nM)
Form field: GI50 (one value per entry).
Quantity Measured: GI50 (nM)

[[record]]
smiles_input = "Cc1ccc(C(=O)Nc2cc(CN3CCN(C)CC3)cc(C(F)(F)F)c2)cc1Oc1nc(-c2ccncc2)nc2ccn(C)c12"
tested_target = "KIF5B-RET-BaF3 (Homo sapiens)"
reported_measurement = 1270

[[record]]
smiles_input = "Cc1ccc(C(=O)Nc2ccc(CN3CCN(C)CC3)c(C(F)(F)F)c2)cc1Oc1nc(-c2ccncc2)nc2cc[nH]c12"
tested_target = "KIF5B-RET-BaF3 (Homo sapiens)"
reported_measurement = 1310

[[record]]
smiles_input = "Cc1ccc(C(=O)Nc2ccc(CN3CCN(C)CC3)c(C(F)(F)F)c2)cc1Oc1cc(-c2cccnc2)nc2c1ccn2C"
tested_target = "KIF5B-RET-BaF3 (Homo sapiens)"
reported_measurement = 613


----------
# Tested Target: CCDC6-RET-BaF3 (Homo sapiens, UniProt P07949)
# Construct: fused on or other part: Q16204 (Coiled-coil domain-containing protein 6)
# Sequence (P07949 whole entry, change not shown, the tested form may be a part): as above
# Assay Method Text: Growth inhibition of CCDC6-RET-BaF3 cells stably transfected with kinase (MTS)
# Assay type: cell-based
# Recorded Conditions: 48 h, read-out: CCDC6-RET (IC50/nM)
Quantity Measured: GI50

[[record]]
compound = "CN1CCN(Cc2ccc(C(=O)Nc3cccc(Oc4nc(-c5ccncc5)nc5ccsc45)c3)cc2C(F)(F)F)CC1 [VI-h-2]"
reported_measurement = "561 nM"

[[record]]
compound = "CC(=O)NCC1CCN(c2ccc(NC(=O)c3ccc(C)c(Oc4nc(-c5ccncc5)nc5ccn(C)c45)c3)cc2C(F)(F)F)CC1 [III-v-3]"
reported_measurement = "23800 nM"

[[record]]
compound = "CN1CCN(Cc2ccc(NC(=O)c3cc(Oc4nc(-c5ccoc5)nc5c4ncn5C)ccc3Cl)cc2C(F)(F)F)CC1 [I-o-10]"
reported_measurement = "1370 nM"

[[record]]
compound = "Cc1ccc(Oc2nc(-c3ccc(O)cc3)nc3c2ncn3C)cc1C(=O)Nc1ccc(CN2CCN(C)CC2)c(C(F)(F)F)c1 [I-n-8]"
reported_measurement = "1210 nM"

[[record]]
compound = "CN1CCN(Cc2ccc(NC(=O)c3cc(Oc4nc(-c5cccnc5)nc5cc[nH]c45)ccc3Cl)cc2C(F)(F)F)CC1 [III-o-1]"
reported_measurement = "2150 nM"

[[record]]
compound = "COc1cc2nccc(Oc3ccc(NC(=O)C4(C(=O)Nc5ccc(F)cc5)CC4)cc3)c2cc1OC [Cabozantinib]"
reported_measurement = "226 nM"

[[record]]
compound = "CN1CCN(Cc2ccc(C(=O)Nc3cc(Oc4nc(-c5ccncc5)nc5c4cnn5C)ccc3Cl)cc2C(F)(F)F)CC1 [II-k-2]"
reported_measurement = "15.8 nM"


----------
# Tested Target: KIF5B-RET-BaF3 (Homo sapiens)
# Construct: fused on or other part: P33176 (Kinesin-1 heavy chain)
# Assay Method Text: Growth inhibition of KIF5B-RET-BaF3 cells stably transfected with kinase (MTS)
# Format: cell-based
# Recorded Conditions: 48 h, read-out: KIF5B-RET (IC50/nM)
# Procedure: Growth inhibitory activity of compounds on cell lines stably transfected with kinase The activity of compounds against kinase RET is evaluated by their effect of inhibiting growth of cell lines stably transfected with kinase CCDC6-RET-BaF3, KIF5B-RET-BaF3, and wild-type BaF3 (Proc. Natl. Acad. Sci. USA., 2006, 103, 3153-8.). The growth of the cell lines stably transfected with kinase CCDC6-RET-BaF3, KIF5B-RET-BaF3 depends on their kinase activity. […]
Form field: GI50 (one value per entry).
Quantity Measured: GI50 (nM)

[[record]]
compound = "Cc1ccc(Oc2cc(-c3ccncc3)nc3sccc23)cc1NC(=O)c1ccc(CN2CCN(C)CC2)c(C(F)(F)F)c1 [VII-j-2]"
quantity_measured = "GI50"
unit_info = "nM"
reported_measurement = 189

[[record]]
compound = "Cc1ccc(C(=O)Nc2ccc(CN3CCN(C)CC3)c(C(F)(F)F)c2)cc1Oc1ncnc2ccn(C)c12 [III-m-22]"
quantity_measured = "GI50"
unit_info = "nM"
reported_measurement = 854

[[record]]
compound = "Cc1ccc(C(=O)Nc2ccc(CN3CCN(C)CC3)c(C(F)(F)F)c2)cc1Oc1nc(-c2ccoc2)nc2ccn(C)c12 [III-m-17]"
quantity_measured = "GI50"
unit_info = "nM"
reported_measurement = 2760

[[record]]
compound = "CN1CCN(Cc2ccc(C(=O)Nc3cc(Oc4nc(-c5ccccc5)nc5cc[nH]c45)ccc3Cl)cc2C(F)(F)F)CC1 [III-k-17]"
quantity_measured = "GI50"
unit_info = "nM"
reported_measurement = 2610

[[record]]
compound = "CCC(=O)NC1CCN(c2ccc(NC(=O)c3ccc(C)c(Oc4nc(-c5ccncc5)nc5c4cnn5C)c3)cc2C(F)(F)F)CC1 [II-v-8]"
quantity_measured = "GI50"
unit_info = "nM"
reported_measurement = 407

[[record]]
compound = "CN1CCN(Cc2ccc(C(=O)Nc3cc(Oc4nc(-c5ccoc5)nc5ccn(C)c45)ccc3Cl)cc2C(F)(F)F)CC1 [III-k-6]"
quantity_measured = "GI50"
unit_info = "nM"
reported_measurement = 1010

[[record]]
compound = "Cc1ccc(Oc2nc(-c3ccccc3)nc3nn(C)cc23)cc1C(=O)Nc1ccc(CN2CCN(C)CC2)c(C(F)(F)F)c1 [IV-n-3]"
quantity_measured = "GI50"
unit_info = "nM"
reported_measurement = 3540

[[record]]
compound = "CN1CCN(Cc2ccc(NC(=O)c3cc(Oc4nc(-c5cccnc5)nc5ccn(C)c45)ccc3Cl)cc2C(F)(F)F)CC1 [III-o-3]"
quantity_measured = "GI50"
unit_info = "nM"
reported_measurement = 1330

[[record]]
compound = "Cc1ccc(C(=O)Nc2ccc(CN3CCN(C)CC3)c(C(F)(F)F)c2)cc1Oc1cc(-c2cccnc2)nc2[nH]ccc12 [V-m-1]"
quantity_measured = "GI50"
unit_info = "nM"
reported_measurement = 473

[[record]]
compound = "Cc1ccc(Oc2nc(-c3ccncc3)nc3c2ncn3C)cc1C(=O)Nc1ccc(CN2CCN(C)CC2)c(C(F)(F)F)c1 [I-n-3]"
quantity_measured = "GI50"
unit_info = "nM"
reported_measurement = 40.5

[[record]]
compound = "CN1CCN(Cc2ccc(C(=O)Nc3cc(Oc4nc(-c5ccsc5)nc5cc[nH]c45)ccc3Cl)cc2C(F)(F)F)CC1 [III-k-7]"
quantity_measured = "GI50"
unit_info = "nM"
reported_measurement = 1900

[[record]]
compound = "CN1CCN(Cc2ccc(NC(=O)c3cc(Oc4nc(-c5cccnc5)nc5cc[nH]c45)ccc3Cl)cc2C(F)(F)F)CC1 [III-o-1]"
quantity_measured = "GI50"
unit_info = "nM"
reported_measurement = 1550

